Test: Solubility in PBS
Type: physicochemical
Conditions: Solubility (uM)
Readout kind: Solubility (µM)
One number for each entry, in µM.

Need Solubility for each of these compounds.
1. CC(=O)N1CCC[C@]12CC=CCCCC1(CCCC=CCCCOC(=O)N3CC[C@@](C(=O)N[C@@H](Cc4ccccc4Cl)C(=O)N[C@@H](Cc4csc5ccccc45)C(=O)N[C@@H](C(N)=O)[C@H](C)O)(C3)NC(=O)[C@H]([C@@H](C)O)NC(=O)[C@H](Cc3ccccc3)NC(=O)[C@H](C)NC(=O)[C@H](C)NC(=O)[C@H](CC(=O)O)NC(=O)[C@H](CC(=O)O)NC1=O)NC(=O)[C@H](CC(C)(C)C)NC(=O)[C@H](CC(=O)O)NC2=O (stereo partly drawn)
2. CC(=O)N1CCC[C@]12CC=CCCCC1(CCCC=CCCCCC[C@@](C)(C(=O)N[C@@H](Cc3ccccc3)C(=O)N[C@@H](Cc3c[nH]c4ccccc34)C(=O)N[C@@H](CCC(N)=O)C(N)=O)NC(=O)[C@H](C(C)C)NC(=O)[C@H](Cc3ccccc3)NC(=O)[C@H](C)NC(=O)[C@H](C)NC(=O)[C@H](CCC(=O)O)NC(=O)[C@H](CC(=O)O)NC1=O)NC(=O)[C@H](C)NC(=O)[C@H](CC(=O)O)NC2=O (stereo partly drawn)

RESULT:
34
49

---

Consider the following molecules; for each one, report its pIC50.
Molecular target: full-length beta-Catenin (Uniprot ID P35222) (Homo sapiens)
Construct: 10 nM full-length beta-Catenin (Uniprot ID P35222)
Test: Fluorescence polarization IC50 (beta-catenin / 5FAM-TCF4 10-53 competition)
Format: binding
Conditions: read-out: beta-Catenin FP IC50
One number for each entry, as −log10 of the molar value.

CC(=O)N1CCC[C@]12CC=CCCCC1(CCCC=CCCCOC(=O)N3CC[C@@](C(=O)N[C@@H](Cc4ccsc4)C(=O)N[C@@H](Cc4csc5ccccc45)C(=O)N[C@@H](CCC(N)=O)C(N)=O)(C3)NC(=O)[C@H](CCCNC(N)=O)NC(=O)[C@H](Cc3ccccc3)NC(=O)[C@H](C)NC(=O)[C@H](C)NC(=O)[C@H](CC(=O)O)NC(=O)[C@H](CC(=O)O)NC1=O)NC(=O)[C@H](CC(C)(C)C)NC(=O)[C@H](CC(=O)O)NC2=O (some centres unmarked): 8.30

Please examine the following record next.
QUERY: Sample CC(=O)N1CCC[C@]12CC=CCCCC1(CCCC=CCCCOC(=O)N3CC[C@@](C(=O)N[C@@H](Cc4ccsc4)C(=O)N[C@@H](Cc4csc5ccccc45)C(N)=O)(C3)NC(=O)[C@H](CC(N)=O)NC(=O)[C@H](Cc3ccccc3)NC(=O)[C@H](C)NC(=O)[C@H](C)NC(=O)[C@H]([C@@H](C)O)NC(=O)[C@H](CC(=O)O)NC1=O)NC(=O)[C@H](CC(C)(C)C)NC(=O)[C@H](CC(=O)O)NC2=O (some centres unmarked) [I-860] — what was its pIC50?
RESULT: 7.21

---

Molecular target: full-length beta-Catenin (Uniprot ID P35222) (Homo sapiens, UniProt P35222)
Construct: 10 nM full-length beta-Catenin (Uniprot ID P35222)
Sequence (P35222 whole entry): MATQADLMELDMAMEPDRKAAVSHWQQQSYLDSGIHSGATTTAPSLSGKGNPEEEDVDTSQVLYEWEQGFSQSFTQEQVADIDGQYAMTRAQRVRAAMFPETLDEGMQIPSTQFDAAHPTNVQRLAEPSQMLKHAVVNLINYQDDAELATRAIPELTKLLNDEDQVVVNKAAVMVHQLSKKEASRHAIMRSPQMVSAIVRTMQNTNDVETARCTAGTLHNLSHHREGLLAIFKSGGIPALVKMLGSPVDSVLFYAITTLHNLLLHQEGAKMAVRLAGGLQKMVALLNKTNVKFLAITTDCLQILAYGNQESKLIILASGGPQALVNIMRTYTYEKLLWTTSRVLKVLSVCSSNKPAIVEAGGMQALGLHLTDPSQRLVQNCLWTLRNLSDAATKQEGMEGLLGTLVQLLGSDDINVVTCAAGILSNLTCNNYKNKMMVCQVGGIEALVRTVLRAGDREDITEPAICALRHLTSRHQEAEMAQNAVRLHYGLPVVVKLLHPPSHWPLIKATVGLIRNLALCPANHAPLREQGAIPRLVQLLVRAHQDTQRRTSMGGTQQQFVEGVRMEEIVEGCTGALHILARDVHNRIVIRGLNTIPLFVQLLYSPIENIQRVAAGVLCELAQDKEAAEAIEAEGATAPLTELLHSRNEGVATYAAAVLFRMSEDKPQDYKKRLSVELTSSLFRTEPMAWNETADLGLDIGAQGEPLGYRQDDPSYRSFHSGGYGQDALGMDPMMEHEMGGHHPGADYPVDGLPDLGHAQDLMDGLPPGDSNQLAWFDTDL
Test: Fluorescence polarization IC50 (beta-catenin / 5FAM-TCF4 10-53 competition)
Assay type: binding
Conditions: fluorescence polarization; read-out: beta-Catenin FP IC50
Readout kind: pIC50
Answers are plain numbers, as −log10 of the molar value.

Would you please look over these solved cases?
CC(=O)N1CCC[C@]12CC=CCCCC1(CCCC=CCCCOC(=O)N3CC[C@@](C(=O)N[C@@H](Cc4ccsc4)C(=O)N[C@@H](Cc4csc5ccccc45)C(=O)N[C@@H](Cc4c[nH]cn4)C(N)=O)(C3)NC(=O)[C@H]([C@@H](C)O)NC(=O)[C@H](Cc3ccccc3)NC(=O)[C@H](C)NC(=O)[C@H](C)NC(=O)[C@H]([C@@H](C)O)NC(=O)[C@H](CC(N)=O)NC1=O)NC(=O)[C@H](CC(C)(C)C)NC(=O)[C@H](CC(=O)O)NC2=O (stereo partly drawn): 6.51
CC(=O)N1CCC[C@]12CC=CCCCC1(CCCC=CCCCOC(=O)N3CC[C@@](C(=O)N[C@@H](Cc4ccsc4)C(=O)N[C@@H](Cc4csc5ccccc45)C(=O)N[C@@H](CCC(N)=O)C(=O)NCc4ccccc4)(C3)NC(=O)[C@H](CC(N)=O)NC(=O)[C@H](Cc3ccccc3)NC(=O)[C@H](C)NC(=O)[C@H](C)NC(=O)[C@H](CC(=O)O)NC(=O)[C@H](CC(=O)O)NC1=O)NC(=O)[C@H](CC(C)(C)C)NC(=O)[C@H](CC(=O)O)NC2=O (stereo partly drawn): 7.96

Now let's try a different one.
QUERY: Given the molecule CC(=O)N1CCC[C@]12CC=CCCCC1(CCCC=CCCCOC(=O)N3CC[C@@](C(=O)N[C@@H](Cc4ccsc4)C(=O)N[C@@H](Cc4csc5ccccc45)C(=O)N[C@@H](CCC(N)=O)C(N)=O)(C3)NC(=O)[C@H](CC(N)=O)NC(=O)[C@H](Cc3ccccc3)NC(=O)[C@H](C)NC(=O)[C@H](C)NC(=O)[C@H](CC(=O)O)NC(=O)[C@H](CC(=O)O)NC1=O)NC(=O)[C@H](CC(C)(C)C)NC(=O)C[C@H](CC(=O)O)NC2=O (stereo partly drawn) , what is its reported pIC50?
RESULT: 7.21

Hey, just so you know, these numbers are from patent US20240116985A1.
